- run conditions: in 1,4-dioxane, 288.15 K

| molecule smiles | solubility (mole fraction) |
| --- | --- |
| CC(=O)Nc1ccccc1[N+](=O)[O-] | 0.13 |

----------
- run conditions: in methanol, 288.15 K

| molecule smiles | solubility (mole fraction) |
| --- | --- |
| CC(=O)Nc1ccccc1[N+](=O)[O-] | 0.0248 |

----------
- run conditions: in ethyl acetate, 303.15 K

| molecule smiles | solubility (mole fraction) |
| --- | --- |
| CC(=O)Nc1ccccc1[N+](=O)[O-] | 0.112 |

----------
- run conditions: in ethanol, 313.15 K

| molecule smiles | solubility (mole fraction) |
| --- | --- |
| CC(=O)Nc1ccccc1[N+](=O)[O-] | 0.0447 |
